# Test system: NCI-H460 lung
# experimentSummary: NCI-60 one-dose screen, 48 h
# conditionNotes: 10 µM unless noted
This is part of a sample that, as a whole, favours compounds with a hit. Of some 83,000 tested, about 20% had one in any assay. The source made the active and inactive calls. Rule for the calls: active = growth percent below 10; inactive = the rest.
Outcomes: True for active, False for inactive

{"compound": "OCCNc1nc(NCCO)nc(Nc2ccc(C3=NN(c4ccc(Cl)cc4)C(c4ccc(Cl)cc4)C3)cc2)n1 (stereo not drawn)", "studySystem": "NCI-H460 lung", "classAssignment": "False"}
{"compound": "c1ccc(-c2cn3ccnc3c(-c3ccc4c(c3)ncn4C3CCCCC3)n2)cc1", "studySystem": "NCI-H460 lung", "classAssignment": "False"}
{"compound": "C=C1C(=O)O[C@H]2[C@H]1CC/C(COC(=O)Nc1nc3ccccc3[nH]1)=C\\CC[C@@]1(C)O[C@@H]21", "studySystem": "NCI-H460 lung", "classAssignment": "False"}
{"compound": "CO[C@@]12C=C[C@@]34CCC(=O)N3c3ccccc3[C@@H](O1)C4C2", "studySystem": "NCI-H460 lung", "classAssignment": "False"}
{"compound": "COc1ccc2cc(/C=C3\\N=C(c4cc(OC)c(OC)c(OC)c4)OC3=O)c(OC)nc2c1", "studySystem": "NCI-H460 lung", "classAssignment": "False"}
{"compound": "O=C1CC(c2ccc(O)c(O)c2)Oc2cc(O)c([C@@H]3O[C@H](CO)[C@@H](O)[C@H](O)[C@H]3O)c(O)c21 (stereo partly drawn)", "studySystem": "NCI-H460 lung", "classAssignment": "False"}
{"compound": "COc1ccc(NC(=O)c2sc3nc(C)c(C(C)=O)cc3c2N)cc1", "studySystem": "NCI-H460 lung", "classAssignment": "False"}
{"compound": "C=C(C)[C@@H]1CCC=C2CC[C@]3(C)[C@H](CC[C@@H]4[C@@]5(C)CCCNC(C)(C)[C@@H]5CC[C@]43C)[C@H]21", "studySystem": "NCI-H460 lung", "classAssignment": "True"}

* * *

# Test system: HCT-15 colon
# experimentSummary: NCI-60 one-dose screen, 48 h (100 = growth as untreated, 0 = no growth, -100 = all killed)
# conditionNotes: 10 µM unless noted
Compounds without any hit were thinned out: in the full panel of roughly 83,000, 20% have a hit.

{"compound": "O=C1CCc2ccccc2N1", "unitDescriptor": "%", "growth": 103}
{"compound": "CCOC(=O)CC[C@H](NC(=O)c1ccc(NC)c2ccccc12)C(=O)OCC", "unitDescriptor": "%", "growth": 96.1}
{"compound": "CC(/C=C/c1ccccc1)=N/NC(=O)c1ccncc1", "unitDescriptor": "%", "growth": 100}
{"compound": "Nc1cc(N)nc(SCC(=O)O)n1", "unitDescriptor": "%", "growth": 110}
{"compound": "COc1cc(C(=O)Nc2cc(OC)c3ccn(C)c3c2)cc2c1C[C@]1(C)CC[C@@H](O)C(C)(C)[C@H]1O2", "unitDescriptor": "%", "growth": 20.9}
{"compound": "COc1ccc(-n2cc(COc3ccc4c5ccnc(C)c5n(CC(C)C)c4c3)nn2)cc1", "unitDescriptor": "%", "growth": 63.4}
{"compound": "CCCCCCCc1n(Cc2ccc3ccccc3c2)c2ccccc2[n+]1Cc1ccc2ccccc2c1", "unitDescriptor": "%", "growth": -80}
{"compound": "O=C1NCc2ccc3c(-c4cccc(Cl)c4)c[nH]c3c21", "unitDescriptor": "%", "growth": 27.2}
{"compound": "COc1ccc2cc(/C=C3\\N=C(c4cc(OC)c(OC)c(OC)c4)OC3=O)c(OC)nc2c1", "unitDescriptor": "%", "growth": 99.4}
{"compound": "COc1ccc2c(c1)Oc1nc(N)c(C#N)c(N)c1C2Sc1ccc(O)cc1 (configuration not stated)", "unitDescriptor": "%", "growth": 65.7}
{"compound": "O=C(Nc1ccc2ncnc(Nc3cccc(C(F)(F)F)c3)c2c1)c1cccs1", "unitDescriptor": "%", "growth": 38.9}
{"compound": "CC(C)Cc1cc(CNC(=O)C2[C@H]3CN(C(=O)c4ccccc4)C[C@@H]23)nn1-c1ccccc1 (some centres not stated)", "unitDescriptor": "%", "growth": 99.3}
{"compound": "O=c1c2ccccc2oc2ccc(OCCCCCN3CCCCCC3)cc12", "unitDescriptor": "%", "growth": 33.1}
{"compound": "Cc1cccc2nc3c(n12)C(=O)C(=O)c1ccccc1-3", "unitDescriptor": "%", "growth": 40.8}
{"compound": "COc1ccc(Cl)c([N+](=O)[O-])c1", "unitDescriptor": "%", "growth": 103}
{"compound": "FC(F)(F)c1ccc2c(Nc3cccc(C4CC(c5ccccc5)=NN4c4ccc(Cl)cc4)c3)ccnc2c1 (configuration not stated)", "unitDescriptor": "%", "growth": 5.61}
{"compound": "O=c1cc(/C=N\\Nc2nc(-c3ccc(Cl)cc3Cl)cs2)c2cc(Cl)ccc2o1", "unitDescriptor": "%", "growth": 90.7}
{"compound": "O=C(CCCCCCCCC(=O)Nc1cccc(C2=NCCN2)c1)Nc1cccc(C2=NCCN2)c1", "unitDescriptor": "%", "growth": 102}
{"compound": "O=C(O)C(C(=O)O)c1cccc2ccccc12", "unitDescriptor": "%", "growth": 104}
{"compound": "C#C[C@@]1(O)[C@@H](CO)O[C@@H](n2cc(F)c3c(N)ncnc32)[C@@H]1O", "unitDescriptor": "%", "growth": -5.29}
{"compound": "CCCCn1c(=O)c(/C=C/C(=O)/C=C/c2cc3ccccc3n(CCCC)c2=O)cc2ccccc21", "unitDescriptor": "%", "growth": 1.62}
{"compound": "O=C(O)c1cn(C2CC2)c2cc(N3CCN(C(=O)CSc4nnc(-c5ccc(Cl)cc5)n4-c4ccccc4)CC3)c(F)cc2c1=O", "unitDescriptor": "%", "growth": 104}
{"compound": "N#Cc1c(-c2ccc(F)cc2)nc(N/N=C/c2c[nH]c3ccccc23)nc1N1CCOCC1", "unitDescriptor": "%", "growth": 8.42}
{"compound": "COc1ccc(-c2cn(-c3ccc(Cl)cc3)c(=S)[nH]2)cc1OC", "unitDescriptor": "%", "growth": 63.4}
{"compound": "CCCCOc1nc2ccc(C)cc2cc1/C=C/C(=O)/C=C/c1ccc2c(c1)OCO2", "unitDescriptor": "%", "growth": 97.8}
{"compound": "C=C1C(=O)O[C@H]2[C@H]1CC/C(COC(=O)c1cc3ccccc3o1)=C\\CC[C@@]1(C)O[C@@H]21", "unitDescriptor": "%", "growth": -68.6}
{"compound": "CN1CCN(/C=C2\\CC(C(=O)NCc3ccc(Cl)cc3Cl)NC2=O)CC1 (configuration not stated)", "unitDescriptor": "%", "growth": 108}
{"compound": "O=C1Nc2ccc(Cl)cc2/C1=N/c1nc(-c2ccc(F)cc2)cs1", "unitDescriptor": "%", "growth": 43.9}
{"compound": "NC(=O)c1ccc2nc3c(n2c1)C(=O)C(=O)c1ccccc1-3", "unitDescriptor": "%", "growth": -63.4}
{"compound": "Cc1cccc(C)c1NCc1nnc(-c2ccc(O)cc2)o1", "unitDescriptor": "%", "growth": 97.7}
{"compound": "CCN(CC)c1ccc2c(c1)Oc1nc(N)c(C#N)c(N)c1C2Sc1ccc(OC)cc1 (configuration not stated)", "unitDescriptor": "%", "growth": 2.89}
{"compound": "O=C1C(=O)c2c(nc3ccc(Br)cn23)-c2ccccc21", "unitDescriptor": "%", "growth": -75.7}
{"compound": "COc1cc(/C=C/CO)cc(OC)c1O[C@@H]1O[C@H](CO)[C@@H](O)[C@H](O)[C@H]1O", "unitDescriptor": "%", "growth": 101}
{"compound": "CC(=O)Nc1c(C(=O)Nc2ccccc2)sc2nc3c(cc12)C(OC(C)=O)CCC3 (configuration not stated)", "unitDescriptor": "%", "growth": 99.7}
{"compound": "S=c1ssnc1-c1cc2ccccc2o1", "unitDescriptor": "%", "growth": 71.1}
{"compound": "Nc1cc(N)c(S(=O)(=O)O)cc1N=Nc1cc([N+](=O)[O-])ccc1O", "unitDescriptor": "%", "growth": 104}
{"compound": "Sc1cccc2cccnc12", "unitDescriptor": "%", "growth": 30.1}
{"compound": "COc1ccc(C(=O)c2cc(OC)c(C)c(OC)c2)cc1OC(=O)CCl", "unitDescriptor": "%", "growth": 12.4}
{"compound": "O=C1NN(c2ccccc2)C(c2ccc3c(c2)OCO3)N2CCC[C@@H]12 (some centres not stated)", "unitDescriptor": "%", "growth": 102}
{"compound": "Nc1ccc(C2=NN(C(=O)c3cc(-c4ccc(Cl)cc4)nc4ccccc34)C(c3ccc(Cl)cc3)C2)cc1 (configuration not stated)", "unitDescriptor": "%", "growth": 26.3}
{"compound": "CCOC(=O)c1c(C)nc2c(c1N)/C(=C/c1ccc[nH]1)C(=O)N2Cc1ccc(C(F)(F)F)cc1", "unitDescriptor": "%", "growth": 68.8}
{"compound": "Nc1ccccc1NS(=O)(=O)c1ccc(Cl)cc1", "unitDescriptor": "%", "growth": 102}
